# TARGET ENTITY: rat recombinant neurolysin (Rattus norvegicus, UniProt P42676)
# Construct: polyhistidine (N); made in house; host or cells: Escherichia coli (pBAD/His vector)
# Sequence (P42676 38-704): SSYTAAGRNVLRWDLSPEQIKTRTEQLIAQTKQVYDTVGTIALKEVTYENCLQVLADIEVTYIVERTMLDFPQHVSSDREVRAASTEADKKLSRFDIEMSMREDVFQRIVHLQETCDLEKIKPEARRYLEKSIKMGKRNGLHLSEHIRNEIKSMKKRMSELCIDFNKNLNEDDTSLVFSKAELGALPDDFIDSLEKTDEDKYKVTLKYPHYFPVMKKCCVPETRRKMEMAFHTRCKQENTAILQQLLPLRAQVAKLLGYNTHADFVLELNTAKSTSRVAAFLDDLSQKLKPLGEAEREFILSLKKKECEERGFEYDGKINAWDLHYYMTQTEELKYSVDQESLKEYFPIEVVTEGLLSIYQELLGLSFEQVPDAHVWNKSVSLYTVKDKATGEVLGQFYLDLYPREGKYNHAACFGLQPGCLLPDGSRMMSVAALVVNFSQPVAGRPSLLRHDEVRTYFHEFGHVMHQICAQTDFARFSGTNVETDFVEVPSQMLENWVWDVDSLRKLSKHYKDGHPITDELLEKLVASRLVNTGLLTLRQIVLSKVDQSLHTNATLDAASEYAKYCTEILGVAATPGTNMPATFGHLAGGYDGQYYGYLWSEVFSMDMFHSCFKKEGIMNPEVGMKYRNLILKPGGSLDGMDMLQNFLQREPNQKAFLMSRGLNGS
# MEASUREMENT DESCRIPTION: Enzymatic assay: QFS hydrolysis by rat recombinant neurolysin
# Type: biochemical
# CONDITIONS: 100 μM compound; QFS 25 μM; compared to vehicle control
OBSERVABLE: % activity at (100) (%)
Provide the reading as a plain figure in %.

Q: Form field: reported % activity at (100) of CC1(C)CC(=O)C(CC(=O)c2ccccc2)=C(NN=C(N)N)C1 [Compound 282137]
A: 94

----------
# TARGET ENTITY: Neurolysin (Nln) (Rattus norvegicus, UniProt P42676)
# Construct: polyhistidine (N); made in house; host or cells: Escherichia coli (pBAD/His vector), if the rat enzyme of b61 was used
# MEASUREMENT DESCRIPTION: Nln activation in isolated enzyme assay (A50, Amax)
# Assay type: biochemical
OBSERVABLE: Amax (maximum % activation achieved)

| COMPOUND | Amax (maximum % activation achieved) |
| --- | --- |
| N[C@H](Cc1c[nH]cn1)C(=O)NCCc1ccccc1C(F)(F)F [HP2CF3] | 396.2 (384.5 to 408.5) % |
| N[C@@H](Cc1c[nH]cn1)C(=O)NCc1cccc(C(F)(F)F)c1 [AB-1-6-2] | 494.4 (476.7 to 512.9) % |
| N[C@H](Cc1c[nH]cn1)C(=O)NCCc1ccc2ccccc2c1 [SR19-2d] | 339.8 (325.4 to 355.4) % |

Q: Fill in: Amax (maximum % activation achieved) of N[C@@H](Cc1c[nH]cn1)C(=O)NCc1ccc(OC(F)(F)F)cc1 [Compound 5p] is ___
A: 310 (287.2 to 336.1) %

Q: I have this compound here, N[C@@H](Cc1c[nH]cn1)C(=O)NCc1ccc(C(F)(F)F)cc1 [DF-8-2] , and I need its recorded Amax (maximum % activation achieved).
A: 305.2 (285.3 to 328) %

Q: Amax (maximum % activation achieved) for N[C@@H](Cc1c[nH]cn1)C(=O)NCc1ccccc1C(F)(F)F [DF-10-2] ?
A: 334 (313.7 to 357.2) %

Q: Requested read-out: Amax (maximum % activation achieved). Entry: N[C@@H](Cc1c[nH]cn1)C(=O)NCc1ccccc1 [DF-3-2B]
A: 152.2 (137.3 to 171.5) %

Q: Look up Amax (maximum % activation achieved) for this compound: N[C@H](Cc1c[nH]cn1)C(=O)NCc1ccc(C(F)(F)F)cc1 (single isomer, unassigned) [AB1-17-2]
A: 598.8 (532.8 to 692.9) %

Q: Any idea what Amax (maximum % activation achieved) was measured for N[C@@H](Cc1c[nH]cn1)C(=O)NCc1ccc(F)cc1 [Compound 5n] ?
A: 293 (276.5-310.7) %

----------
List of % activity at 10 values.
# TARGET ENTITY: rat recombinant neurolysin (Rattus norvegicus)
# Construct: polyhistidine (N); made in house; host or cells: Escherichia coli (pBAD/His vector)
# MEASUREMENT DESCRIPTION: Enzymatic assay: QFS hydrolysis by rat recombinant neurolysin
# Format: biochemical
# CONDITIONS: 10 μM compound; QFS 25 μM; compared to vehicle control
Peptide text beside a SMILES is read from it.
Could you give me the number in %? Just the number is fine.

Sample records with % activity at 10:
| MOLECULE | TARGET ENTITY | % activity at 10 [%] |
| --- | --- | --- |
| CC1(C)CC(=O)C(CC(=O)c2ccccc2)=C(NN=C(N)N)C1 [Compound 282137] | rat recombinant neurolysin (Rattus norvegicus) | 106 |
| COC1OC2COC(c3ccccc3)OC2C(N=Cc2ccccc2)C1O (stereo not shown) [Compound 210826] | rat recombinant neurolysin (Rattus norvegicus) | 101 |

Q: For the molecule shown here, CC(C)C(N)C(=O)NC(C(=O)NS(=O)(=O)c1ccc(N)cc1)C(C)C (stereo not shown) [Compound 340049] , give the reported % activity at 10.
A: 94

Q: Find the recorded % activity at 10 belonging to NCC(SSC(CN)C(=O)O)C(=O)O (stereo not shown) [Compound 302851] and report it.
A: 104

Q: Given O=C(O)C1C2C=CC(O2)C1C(=O)NCCCN1CCOCC1 (stereo not shown) [Compound 47096] , state its recorded % activity at 10.
A: 101

Q: May I ask what % activity at 10 has been recorded for Cl.NC(=O)C(Cc1ccc(O)cc1)NC(=O)C(N)Cc1c[nH]c2ccccc12 (stereo not drawn) [Compound 339919] (H-Trp-Tyr-NH2; configuration not given here) ?
A: 100

Q: Which % activity at 10 is reported for this molecule? COc1ccc2c(c1)c(=O)c(C(=O)O)cn2CCCOc1ccc([N+](=O)[O-])cc1 [Compound 211002]
A: 104

Q: Item under review: CN(CCc1cnc2nc(N)[nH]c(=O)c2n1)c1ccc(C(=O)O)cc1 [Compound 121184] . Reported % activity at 10?
A: 77

Q: Fill in: % activity at 10 of CSCCC(N)[P+](=O)O (stereo not shown) [Compound 359097] is ___
A: 87

Q: Would you kindly share the measured % activity at 10 for CCC1COc2nc(=O)c(C=NCCCN(C)C)c(N)n21 (stereo not shown) [Compound 608820] ?
A: 102

Q: Which measured % activity at 10 value corresponds to CC(C)CC(NC(=O)C(N)CC(=O)O)C(=O)O (stereo not drawn) [Compound 332636] (H-Asp-Leu-OH; configuration not given here) ?
A: 103

Q: What measured % activity at 10 goes with CCCCCCN(C)C12CN3CN(CN(C3)C1)C2 [Compound 281707] ?
A: 109

Q: Looking for the measured % activity at 10 of NC1=C(O)/C(=N/NS(=O)(=O)c2ccccc2)C(c2ccc3c(c2)OCO3)O1 (stereo not shown) [Compound 640354] , can you help?
A: 79

Q: Returns the measured % activity at 10 for the input molecule. Input: CC(C)CC(NC(=O)C(C)N)C(=O)NCC(=O)O (stereo not shown) [Compound 333568]
A: 106

Q: Query (molecule): CCOCCOCCN1CNc2nc(N)[nH]c(=O)c2C1 [Compound 92597] ; field requested: % activity at 10
A: 105

Q: Would you kindly share the measured % activity at 10 for CN1CCC(O)(c2ccccc2)C(CCC(=O)N2CCCC2)C1.Cl (stereo not shown) [Compound 15180] ?
A: 102
